assay: Cytotoxicity against MT4 cells by MTT assay; type: cell-based; settings: human, read-out: LC50 (the source's name)
Below is a list of entries, each paired with its recorded CC50 value.

CC(=O)NC(CS(=O)(=O)c1ccc2ccccc2c1)C(=O)N[C@@H](Cc1ccccc1)[C@H](O)C(=O)N1CSC(C)(C)[C@H]1C(=O)NCc1ccccc1C (stereo not given in full) = 16 µM

// next entry
For Cc1cc(C)c(NC(CSc2ccc3ccccc3c2)C(=O)N[C@@H](Cc2ccccc2)[C@H](O)C(=O)N2CSC(C)(C)[C@H]2C(=O)NCc2ccccc2C)c(C)c1 (stereo not given in full) , what is its reported CC50?
6.1 µM
